experimental-target: Serine/threonine-protein kinase pim-1 (Homo sapiens, UniProt P11309)
measured-parameter: pIC50
Keep in mind that pIC50 stands for -log10 of concentration in molar terms.

Query: Need pIC50, item c1ccc2c(c1)[nH]c1c3[nH]c4ccccc4c3c3[nH]ncc3c21
Response: 6.82

----------
I'd be grateful if you could share measured Activity for these entries.
experimental-target: Serine/threonine-protein kinase pim-1 (Homo sapiens)
test-description: Inhibition of human full length (His)6-tagged Pim-1 expressed in insect Sf21 cells using RSRHSSYPAGT as substrate assessed as residual enzyme activity at 10 uM measured for 30 mins by [gamma-33P]ATP-based kinase assay
Sequence (P11309 whole entry, looked up): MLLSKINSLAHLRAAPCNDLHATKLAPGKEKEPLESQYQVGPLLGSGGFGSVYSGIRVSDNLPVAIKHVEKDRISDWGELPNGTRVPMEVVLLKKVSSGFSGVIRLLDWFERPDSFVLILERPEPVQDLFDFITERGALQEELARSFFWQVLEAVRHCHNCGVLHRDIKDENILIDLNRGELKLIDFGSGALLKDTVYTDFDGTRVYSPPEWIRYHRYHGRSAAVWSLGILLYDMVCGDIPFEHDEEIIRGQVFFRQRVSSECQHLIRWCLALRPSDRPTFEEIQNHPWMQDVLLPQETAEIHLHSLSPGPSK
Give the quantity in %, number only.

Query: Need Activity, item c1ccc2c(c1)[nH]c1c3[nH]c4ccccc4c3c3[nH]ncc3c21
Response: 2

Query: Need Activity, item c1ccc2c(-c3cn[nH]c3-c3c[nH]c4ccccc34)c[nH]c2c1
Response: 73

Query: Need Activity, item O=c1[nH][nH]c(-c2c[nH]c3ccccc23)c1-c1c[nH]c2ccccc12
Response: 67

Query: Need Activity, item O=c1[nH][nH]c2c1c1c3ccccc3[nH]c1c1[nH]c3ccccc3c12
Response: 8
